biological target: bovine serum albumin (BSA) (Bos taurus, UniProt P02769); construct: BSA, molecular weight of 66 kDa, 583 residues; purchased Sigma Aldrich Chemicals (Taufkirchen, Germany); test: High hydrostatic pressure fluorescence titration of ANS with BSA (1-2000 bar); type: binding; conditions: Binding constant Kb1, 250 mM Mg(ClO4)2, 5 °C, 2000 bar
Sequence (P02769 25-607): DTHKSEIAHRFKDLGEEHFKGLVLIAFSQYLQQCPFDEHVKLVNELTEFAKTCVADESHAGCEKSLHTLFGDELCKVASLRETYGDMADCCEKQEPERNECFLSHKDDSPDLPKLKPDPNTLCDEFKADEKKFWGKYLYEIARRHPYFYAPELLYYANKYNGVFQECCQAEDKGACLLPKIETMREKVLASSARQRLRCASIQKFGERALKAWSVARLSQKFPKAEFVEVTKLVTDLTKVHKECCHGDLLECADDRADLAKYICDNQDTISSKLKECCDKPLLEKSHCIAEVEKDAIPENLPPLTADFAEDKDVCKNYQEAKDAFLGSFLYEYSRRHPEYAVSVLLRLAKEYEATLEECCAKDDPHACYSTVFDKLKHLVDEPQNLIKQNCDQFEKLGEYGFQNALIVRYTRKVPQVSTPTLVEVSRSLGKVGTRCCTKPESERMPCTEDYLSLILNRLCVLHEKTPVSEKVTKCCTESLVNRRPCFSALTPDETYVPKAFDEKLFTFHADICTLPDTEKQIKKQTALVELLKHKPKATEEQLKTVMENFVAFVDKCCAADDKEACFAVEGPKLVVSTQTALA
observed property: Kd (µM)

molecule="O=S(=O)(O)c1cccc2cccc(Nc3ccccc3)c12 [ANS, 8-anilinonaphthalene-1-sulfonic acid]" result_number=2.56

* * *

molecular target: bovine serum albumin (BSA) (Bos taurus); construct: BSA, molecular weight of 66 kDa, 583 residues; purchased Sigma Aldrich Chemicals (Taufkirchen, Germany); experiment: High hydrostatic pressure fluorescence titration of ANS with BSA (1-2000 bar); assay type: binding; details: Binding constant Kb2, 250 mM Mg(ClO4)2, 15 °C, 2000 bar
pKd: −log10 of the molar value.
observed property: pKd

test_smiles=O=S(=O)(O)c1cccc2cccc(Nc3ccccc3)c12 result_number=5.38

* * *

Target: bovine serum albumin (BSA) (Bos taurus, UniProt P02769)
Construct: BSA, molecular weight of 66 kDa, 583 residues; purchased Sigma Aldrich Chemicals (Taufkirchen, Germany)
Experiment: High hydrostatic pressure fluorescence titration of ANS with BSA (1-2000 bar)
Assay type: binding
Conditions: Binding constant Kb1, 250 mM MgSO4, 15 °C, 1500 bar
Protocol: The extent of complex formation between ANS and BSA was followed by means of steady-state fluorescence spectroscopy using a K2 fluorometer from ISS, Inc. (Champaign, IL, USA). […] In the next step, we explored the impact of high hydrostatic pressure (HHP) on the binding of ANS to BSA in the presence of the three salts and in the temperature range between 5 and 25 °C. To this end, we performed the same titration experiments following the complex formation by means of HHP fluorescence spectroscopy. […]
observed property: Kd (nM)

test_smiles=O=S(=O)(O)c1cccc2cccc(Nc3ccccc3)c12 system_tested="bovine serum albumin (BSA) (Bos taurus, UniProt P02769)" observed_property=Kd result_number=2330

* * *

biological target: bovine serum albumin (BSA) (Bos taurus); construct: BSA, molecular weight of 66 kDa, 583 residues; purchased Sigma Aldrich Chemicals (Taufkirchen, Germany); assay: High hydrostatic pressure fluorescence titration of ANS with BSA (1-2000 bar); format: binding; settings: Binding constant Kb1, 250 mM MgSO4, 25 °C, 500 bar
observed property: Kd

test_smiles=O=S(=O)(O)c1cccc2cccc(Nc3ccccc3)c12 system_tested="bovine serum albumin (BSA) (Bos taurus)" result="0.345 µM"

* * *

Target: bovine serum albumin (BSA) (Bos taurus)
Construct: BSA, molecular weight of 66 kDa, 583 residues; purchased Sigma Aldrich Chemicals (Taufkirchen, Germany)
Test: High hydrostatic pressure fluorescence titration of ANS with BSA (1-2000 bar)
Format: binding
Settings: Binding constant Kb2, 250 mM Mg(ClO4)2, 25 °C, 1000 bar
Description: The extent of complex formation between ANS and BSA was followed by means of steady-state fluorescence spectroscopy using a K2 fluorometer from ISS, Inc. (Champaign, IL, USA). […] In the next step, we explored the impact of high hydrostatic pressure (HHP) on the binding of ANS to BSA in the presence of the three salts and in the temperature range between 5 and 25 °C. To this end, we performed the same titration experiments following the complex formation by means of HHP fluorescence spectroscopy. […]
observed property: Kd

test_smiles=O=S(=O)(O)c1cccc2cccc(Nc3ccccc3)c12 observed_property=Kd result="833 nM"
